Would you mind telling me the reported pIC50 of each entry?
tested.target: C5aR (Homo sapiens, UniProt P21730)
Construct: U937 cells are a monocytic cell line which express C5aR
Sequence (P21730 whole entry): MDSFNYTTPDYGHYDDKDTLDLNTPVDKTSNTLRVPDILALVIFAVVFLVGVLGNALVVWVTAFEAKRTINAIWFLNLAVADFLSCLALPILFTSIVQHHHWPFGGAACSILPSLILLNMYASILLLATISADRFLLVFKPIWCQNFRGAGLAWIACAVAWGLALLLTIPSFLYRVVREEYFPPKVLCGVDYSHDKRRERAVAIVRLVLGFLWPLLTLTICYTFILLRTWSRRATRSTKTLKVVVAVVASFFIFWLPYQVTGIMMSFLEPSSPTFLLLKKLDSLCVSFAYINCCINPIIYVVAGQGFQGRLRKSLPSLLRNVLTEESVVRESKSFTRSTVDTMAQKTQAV
assay.comment: chemotaxis assay (C5aR mediated migration)
assay.context: migration of U937 or neutrophil cells toward C5a (0.03 nM), 1.5 hours at 37° C., read-out: Mig IC50
Procedure: U937 cells are a monocytic cell line which express C5aR, and are available from ATCC (VA). […] Optionally, compounds may be further assayed for their ability to inhibit chemotaxis in cells. […] The chambers are incubated 1.5 hours at 37° C., and the number of cells in the lower chamber quantified either by direct cell counts in five high powered fields per well or by the CyQuant assay (Molecular Probes), a fluorescent dye method that measures nucleic acid content and microscopic observation.
pIC50: −log10 of the molar value.

Q: What pIC50 appears in the records for this molecule with C5aR (Homo sapiens, UniProt P21730)? CCc1cccc(CC)c1-n1nc2c(c1-c1cc(F)c(F)c3[nH]ccc13)CN(c1ncc(C(F)(F)F)cc1F)CC2 [Example 1.120]
A: 7.30 to 8.30

Q: What pIC50 appears in the records for this molecule with C5aR (Homo sapiens, UniProt P21730)? CCc1cccc(CC)c1-n1nc2c(c1-c1ccc(Cl)c3[nH]ccc13)CN(c1ncc(C(F)(F)F)cc1C)CC2 [Example 1.088]
A: > 8.30

Q: What pIC50 appears in the records for this molecule with C5aR (Homo sapiens, UniProt P21730)? CCc1cccc(CC)c1-n1nc2c(c1-c1c(F)cc(CO)c3[nH]ccc13)CN(c1ncc(C(C)C)cc1F)CC2 [Example 1.094]
A: > 8.30

These data points were gathered from patent US11384079B2.
